Exercise: state measured growth for each of the compounds provided.
System: UO-31 renal
procedure_text: NCI-60 one-dose screen, 48 h (100 = growth as untreated, 0 = no growth, -100 = all killed)
applied_conditions: 10 µM unless noted
Compounds without any hit were thinned out: in the full panel of roughly 83,000, 20% have a hit.
Express it in %; write the number only.

Lookup: Report growth for `CCOC(=O)c1c(Nc2ccccc2)nn2c(N)c(C#N)c(-c3ccccc3)nc12` tested on UO-31 renal.
Found: 81.1

Lookup: For `Cc1ccc(/C=C/c2nn3c(-c4ccco4)nnc3s2)cc1C` then?
Found: 80.8

Lookup: For `CC(C)NC(=O)c1cc(-c2ccc(NC(=O)Nc3ccc(N4CCOCC4)c(C(F)(F)F)c3)cc2)nc2cccnc12` then?
Found: 48.2

Lookup: For `COc1ccccc1C(=O)CSc1nc(Nc2ccc(S(N)(=O)=O)cc2)c2ccccc2n1` then?
Found: 90.6

Lookup: For `Cc1c(NC(=O)CSc2nc3sc4c(c3c(=O)n2-c2ccc(Cl)cc2)CCCC4)c(=O)n(-c2ccccc2)n1C` then?
Found: 72.8

Lookup: For Cc1cc(C(NC(=O)CCCCCNc2cccc3c2C(=O)N(C2CCC(=O)NC2=O)C3=O)c2cccnc2)c(O)c2ncccc12 (stereo not given) then?
Found: 18.7

Lookup: For `COc1cc(-c2nc3ccc(-c4nnc(SCC(=O)Nc5ccc(C(C)=O)cc5)o4)cc3[nH]2)cc(OC)c1OC` then?
Found: 85.2

Lookup: For `O=C(N/N=C/c1ccco1)c1[nH]c2ccc(Br)cc2c1-c1ccccc1` then?
Found: 38.6

Lookup: For `CS(=O)(=O)c1ccc(-c2nc3ccccn3c2C=Nc2ccc(Cl)cc2)cc1` then?
Found: 61.4

Lookup: For COC(=O)C1CCCN(S(=O)(=O)/N=C2\NC(=O)NC2=C(Cl)Cl)C1 (stereo not given) then?
Found: 92.2

Lookup: For `CN(C)c1ccc(/C=C2\Cc3c(F)ccc(Br)c3C2=O)cc1` then?
Found: 77

Lookup: For `O=C(CSc1nc2sc3c(c2c(=O)n1-c1ccc(Cl)cc1)CCCC3)N/N=C/c1ccc(F)cc1` then?
Found: 83.2

Lookup: For `Clc1ccc2c(NCCCn3ccnc3)c3oc4ccc(Cl)cc4c3nc2c1` then?
Found: 44

Lookup: For C#Cc1nc(C2=C(C)C(O)/C(=N/O)C2)cs1 (stereo not given) then?
Found: -91.1

Lookup: For `Clc1ccc(Cc2nnc3sc(-c4cccnc4)nn23)cc1` then?
Found: 71.7

Lookup: For `COc1cc(/C=C/C(=O)c2cc(OC)c(OC)c(OC)c2)ccc1OCc1ccc(F)cc1` then?
Found: 45.4

Lookup: For `CN(C)CCCNc1c2ccccc2nc2c1oc1ccc(Cl)cc12` then?
Found: 39.5

Lookup: For `Clc1ccc2c(OCCCN3CCOCC3)c3oc4ccccc4c3nc2c1` then?
Found: 22.2

Lookup: For `CN(C)CCCOc1c2ccc(Cl)cc2nc2c1oc1ccc(Cl)cc12` then?
Found: 2.96

Lookup: For `O=C(N/N=C/c1cccs1)c1[nH]c2ccc(Br)cc2c1-c1ccccc1` then?
Found: 49.4
